# Target or test system: Rac GTPase-activating protein 1 (Homo sapiens) (UniProt Q9H0H5)
# Sequence (Q9H0H5 whole entry, looked up): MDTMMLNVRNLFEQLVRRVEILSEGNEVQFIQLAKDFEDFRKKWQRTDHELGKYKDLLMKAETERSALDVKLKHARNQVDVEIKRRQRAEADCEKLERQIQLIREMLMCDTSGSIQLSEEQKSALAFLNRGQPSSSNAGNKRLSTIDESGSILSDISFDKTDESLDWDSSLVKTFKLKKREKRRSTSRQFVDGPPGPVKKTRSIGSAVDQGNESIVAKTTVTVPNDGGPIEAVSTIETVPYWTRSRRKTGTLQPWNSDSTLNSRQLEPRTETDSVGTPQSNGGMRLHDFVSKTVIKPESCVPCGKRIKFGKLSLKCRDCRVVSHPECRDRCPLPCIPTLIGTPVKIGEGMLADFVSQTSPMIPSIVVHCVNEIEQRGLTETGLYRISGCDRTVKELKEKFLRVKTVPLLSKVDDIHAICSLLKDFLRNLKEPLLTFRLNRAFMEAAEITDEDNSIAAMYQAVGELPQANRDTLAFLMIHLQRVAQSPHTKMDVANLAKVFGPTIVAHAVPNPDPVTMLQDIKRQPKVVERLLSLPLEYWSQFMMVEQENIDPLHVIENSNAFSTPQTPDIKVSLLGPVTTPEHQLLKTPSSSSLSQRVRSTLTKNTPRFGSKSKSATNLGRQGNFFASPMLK
# Procedure summary: blockers of MgcRacGAP-driven Rac1 GTP hydrolysis – biochemical, ADP Hunter fluorescence, primary and confirmatory, confirmation (AID 624330);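 note: fluorescence reports GDP produced by GAP-driven GTP hydrolysis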
# Test context: MgcRacGAP-stimulated Rac1 GTP hydrolysis, at 30 µM, stronger effect = higher value, GST-tagged Rac1 F28L mutant substrate
Out of some 340,000 compounds screened, about 2,100 (0.62%) were called active. These entries were drawn from the full list. Potency and affinity values are given separately.
Rule: inhibition under 6% gives criterion not met, otherwise criterion met.

Confirm if inhibition reported for the molecule "O=C(NNc1c2ccccc2nc2ccccc12)c1ccccc1Cl" is 6% or above.
criterion met

Confirm if inhibition reported for the molecule "C/C(Cn1nc([N+](=O)[O-])cc1C)=N\NC(=O)COc1ccc(Cl)cc1Cl" is 6% or above.
criterion met

Confirm if inhibition reported for the molecule "CC[C@@]1(C(=O)OC)N[C@H](CN(C)C(=O)c2ccc(F)cc2)[C@@H]2C(=O)N(Cc3ccccc3)C(=O)[C@@H]21" is 6% or above.
criterion not met

Confirm if inhibition reported for the molecule "O=C(NNc1c2ccccc2nc2ccccc12)c1ccccc1O" is 6% or above.
criterion met

Confirm if inhibition reported for the molecule "CC(=O)c1cc(Cc2csc(C(C)=O)c2)cs1" is 6% or above.
criterion not met
